Provide the reported apparent KD of MS2 coat protein of each item.
# Tested on: MS2 coat protein
# assay remarks: apparent KD of MS2 coat protein; designed switch direction (-1 OFF switch, 1 ON switch): 1; higher = weaker reporter binding
# test parameters: Eterna round: R95; input ligand: none
Unit nM implied. Number only.

// query # apparent KD of MS2 coat protein lookup, item AGCUAUCGAAAACGAUAGCAAAGGCAUGUACAUGAGGAUCACCCAUGUCAUGUACAAGCUUUUUGCUCGUCUUAAAA [Zipper 23 - 3] (puzzle: Sensor for hsa-mir-208a)
// result 983

// query # apparent KD of MS2 coat protein lookup, item UACCAUAGUAUAUUGGUGCAAGCUUUUUGACAUGAGGAUCACCCAUGUACUCGUCUUAUGUGCAGUCCGUAGACUGC [JL-shm-2.22 Brourd mod] (puzzle: Sensor for hsa-mir-208a)
// result 54.6

// query # apparent KD of MS2 coat protein lookup, item AAGGUCUUCGUACAGGAUAUGCACUUGUGCACAUGAGGAUCACCCAUGUGGGAAAAGGUCACAGGGCAGAAGGGUAUUUAUAAAA [Erriti] (puzzle: Same State 2)
// result 103

// query # apparent KD of MS2 coat protein lookup, item AGGCAAGCUUUUUGCUGGUAUGGAGGAUAACAUGAGGAUCACCCAUGUAUUGGAGGUGUUGAAGAUUUGAGAAAGAA [JR_SHM208A_Sub005] (puzzle: Sensor for hsa-mir-208a)
// result 139

// query # apparent KD of MS2 coat protein lookup, item CGGCGCUGUCGAGAGGAUAUGCGGUGAUGGACAUGAGGAUCACCCAUGUUAGCGAUAGCAUCACGGUAGAAGGCUCUUACGCCUG [Soteed Omei mod 23] (puzzle: Same State 2)
// result 205

// query # apparent KD of MS2 coat protein lookup, item GUAUAACAUGAGGAUCACCCAUGUCAACAAAGUCGAGGAUAUGGGCAUAUAAUAUAUGAACCAGAAGGCGAAUAUG [Mat - Same State 1 - Mod of UCT - D36] (puzzle: Same State 1)
// result 56.7

// query # apparent KD of MS2 coat protein lookup, item UUAAGCAACGGGCAGGAUAUGUAUUAAUAUACAUGAGGAUCACCCAUGUGCAGGUGUAACACCUGACAGAAGGGCCAAUCGCUGC [Soteed - 10] (puzzle: Same State 2)
// result 515

// query # apparent KD of MS2 coat protein lookup, item GGUCCAGCCUGAGCUGGACAAAAGCAUGUACAUGAGGAUCACCCAUGUCAUGUACAAGCUUUUUGCUCGUCUAAAUU [Mat - hsa-mir-208a - 94] (puzzle: Sensor for hsa-mir-208a)
// result 578

// query # apparent KD of MS2 coat protein lookup, item GUAUCUACAGGUUGCAAUGCUCGUCGGAUACAUGAGGAUCACCCAUGUUAUAGCCCUGUGCUUGCGCAGGGCUGAUU [Sensor for hsa-mir-208a ( MOD of Tearor )] (puzzle: Sensor for hsa-mir-208a)
// result 49.5

// query # apparent KD of MS2 coat protein lookup, item GACAGGCAAGCUUUUUUCUCGUAGUGUAAACAUGAGGAUCACCCAUGUGCUCGCCCUAGAUCUUUGGAUCGCAGAAA [Ceedes] (puzzle: Sensor for hsa-mir-208a)
// result 50.1

// query # apparent KD of MS2 coat protein lookup, item UCUUGGUUUUUGCUCGUUUUUUGUGUUGAACAUGAGGAUCACCCAUGUAUUGUACGGUCCAGUUUGAUAAUGGUCCG [JMF 34] (puzzle: Sensor for hsa-mir-208a)
// result 27.3

// query # apparent KD of MS2 coat protein lookup, item UAGAGAGGAAGCGAGGAUAUCGUGUUAGGUACAUGAGGAUCACCCAUGUUUUAGGUAGAGGUAGGCGAGAAGGCGCAGGAGAAGA [JR_SS2_Sub090] (puzzle: Same State 2)
// result 34

// query # apparent KD of MS2 coat protein lookup, item CGCCGACAUGAGGAUCACCCAUGUGAGCGACUCACAGGAUAUACGCGAUAACAAAGUCGCGUAGAAGGGUGCUCCU [Iscezaso] (puzzle: Same State 1)
// result 23.3

// query # apparent KD of MS2 coat protein lookup, item AGUCCAGCCUGAGCUGGACAAAAGCAUGUACAUGAGGAUCACCCAUGUCGUGUACAAGCUUUUUGCUCGUCUUAAUA [Zipper 49 - 4] (puzzle: Sensor for hsa-mir-208a)
// result 311

// query # apparent KD of MS2 coat protein lookup, item CAAGCUUGGGUCGUCCCGCUCGUCUACAAACAUGAGGAUCACCCAUGUAUGCUCUUCGCAUCAAUUCUAUCUCUUGG [Quxeteor] (puzzle: Sensor for hsa-mir-208a)
// result 54.1

// query # apparent KD of MS2 coat protein lookup, item ACGCAGCUGGGCAAGGAUAUCGGUGGUAAAACAUGAGGAUCACCCAUGUCCGAAGCUCGGACUUCCGAGAAGGUGCCCGGCUGCG [Soinraesar Omei Mod 8] (puzzle: Same State 2)
// result 238

// query # apparent KD of MS2 coat protein lookup, item GGUCCAGCCUGAGCUGGACAAAAGCAUGUACAUGAGGAUCACCCAUGUCAUGUACAAGCUUUUUGCUCGUCUAAAAU [Mat - hsa-mir-208a - 101] (puzzle: Sensor for hsa-mir-208a)
// result 629

// query # apparent KD of MS2 coat protein lookup, item ACUUGCUUUUUGCUCAUUUUAUGUCCGAAACAUGAGGAUCACCCAUGUGUAGAUUAUGUGUUGUUUUUGAUACGUGA [JR_SHM208A_Sub067] (puzzle: Sensor for hsa-mir-208a)
// result 26.3

// query # apparent KD of MS2 coat protein lookup, item GGUCCAGCCUGAGCUGGACAAAAGCAUGUACAUGAGGAUCACCCAUGUCAUGUACAAGCUUUUUGCUCGUCUAAAGA [Mat - hsa-mir-208a - 91] (puzzle: Sensor for hsa-mir-208a)
// result 705

// query # apparent KD of MS2 coat protein lookup, item GGAGCCGGCACCGAGGAUAUUCAUAUUAAAACAUGAGGAUCACCCAUGUACCGCAGAAGCGGUUGGGAGAAGGCGGAUCGGCUCG [Xeonanis - 23] (puzzle: Same State 2)
// result 730

# credit: the supplement of paper PMC9170038
